Listed next: entries and their corresponding pIC50.
test system: OCI-AML2; assay: Antiproliferative activity against human OCI-AML2 cells incubated for 48 hrs by MTS assay; type: functional, cell-based; settings: OCI-AML2, 48 h
pIC50: −log10 of the molar value.

STRUCTURE AS SMILES	VALUE OPERATOR	pIC50
Cc1nc2ccccc2cc1C(=O)N/N=C/c1ccccc1O	=	5.05
Cc1nc2c(C)cccc2cc1C(=O)N/N=C/c1cccc(Cl)c1	=	5.60
Cc1ccc2nc(C)c(C(=O)N/N=C/c3cccc(O)c3)cc2c1	<	4.40
COc1ccc2ccccc2c1/C=N/NC(=O)c1cc2cccc(C)c2nc1C	<	4.40
Cc1nc2c(C)cccc2cc1C(=O)N/N=C/c1ccccc1Cl	=	5.58
Cc1nc2c(C)cccc2cc1C(=O)N/N=C/c1ccccc1O	=	5.58
Cc1ccc2nc(C)c(C(=O)N/N=C/c3cccc([N+](=O)[O-])c3)cc2c1	<	4.40

====

tested on: OCI-AML2; test: Antiproliferative activity against human OCI-AML2 cells incubated for 48 hrs by MTS assay; format: functional, cell-based; conditions: OCI-AML2, 48 h
pIC50: −log10 of the molar value.
Reported pIC50 by item:
PROPERTY NAME: pIC50

STRUCTURE AS SMILES	REPORTED VALUE
CC(C)=NNC(=O)c1cc2cccc(C)c2nc1C	< 4.40
Cc1nc2ccccc2cc1C(=O)N/N=C/c1cccc(Cl)c1	< 4.40
Cc1nc2c(C)cccc2cc1C(=O)N/N=C/c1cccc([N+](=O)[O-])c1	5.57
Cc1nc2ccccc2cc1C(=O)N/N=C/c1cccc([N+](=O)[O-])c1	< 4.40
Cc1ccc2nc(C)c(C(=O)N/N=C/c3cccc(Cl)c3)cc2c1	< 4.40
Cc1nc2c(C)cccc2cc1C(=O)N/N=C/c1cccnc1	4.81

====

Reported pIC50 values for a set of molecules
test system: OCI-AML2; experiment: Antiproliferative activity against human OCI-AML2 cells incubated for 48 hrs by MTS assay; format: functional, cell-based; details: OCI-AML2, 48 h
pIC50: −log10 of the molar value.
PROPERTY NAME: pIC50

MOLECULE	VALUE OPERATOR	REPORTED VALUE
Cc1nc2c(C)cccc2cc1C(=O)N/N=C/c1ccccc1	=	4.96
Cc1nc2c(C)cccc2cc1C(=O)N/N=C/c1c(C)[nH]c2ccccc12	=	4.98
Cc1nc2ccccc2cc1C(=O)N/N=C/c1ccccn1	<	4.40
Cc1ccc2nc(C)c(C(=O)N/N=C/c3cccnc3)cc2c1	<	4.40
Cc1nc2c(C)cccc2cc1C(=O)N/N=C/c1cccc(O)c1	=	4.77
O=C1CCC(N2Cc3cc(CNC(=O)C(F)(F)c4ccc(Cl)cc4)ccc3C2=O)C(=O)N1 (stereo unspecified)	=	8.00
